# protocol: qHTS assay to identify small molecule agonists of the peroxisome proliferator-activated receptor delta (PPARd) signaling pathway - cell viability counter screen (AID 743211); also: nearly all actives have a fitted effect of over 55% in size
# statedConditions: PPARd-bla HEK293H viability, CellTiter-Glo luminescence, 17 h; series mostly up to 62.6 µM
Results filed as inconclusive are left out. Active and inactive are the calls of the source. Calls follow the shape of the dose curve; as a rule, active = well fitted cell-killing curve with a large enough effect in the repeat runs; inconclusive = weak or mixed curves; inactive = no such curve, though single readings can be large or run the other way.
// allowed return values: active, inactive

Request: Fill in: this test's call for "O=C1CCc2cc(OCCCCc3nnnn3C3CCCCC3)ccc2N1" is ___
Response: inactive

Request: Continue with "Oc1cc(Cl)cc(Cl)c1Cl"
Response: inactive

Request: Continue with "O=C1OC2(c3ccc(O)cc3Oc3cc(O)ccc32)c2ccc(N=C=S)cc21"
Response: inactive

Request: Continue with "C#Cc1ccc(-c2ccccc2F)cc1"
Response: inactive

Request: Continue with "CCC(COC(=O)CCS)(COC(=O)CCS)COC(=O)CCS"
Response: inactive

Request: Continue with "O=c1c(O)c(-c2ccc(O)cc2O)oc2cc(O)cc(O)c12"
Response: inactive

Request: Continue with "CC1(C)CCC[C@]2(C)[C@H]3CCO[C@]3(C)CC[C@@H]12"
Response: inactive

Request: Continue with "Fc1ccc(C(c2ccc(F)cc2)N2CCNCC2)cc1"
Response: active

Request: Continue with "O=C(O)Cc1ccccc1Nc1c(Cl)cccc1Cl"
Response: inactive

Request: Continue with "CCCCCCCC/C=C\CCCCCCCCN"
Response: inactive

Request: Continue with Cc1cc(C(C#N)c2ccc(Cl)cc2)c(Cl)cc1NC(=O)c1cc(I)cc(I)c1O (stereo unspecified)
Response: active

Request: Continue with "CCOc1ccc2ccccc2c1C(=O)N[C@@H]1C(=O)N2[C@@H]1SC(C)(C)[C@@H]2C(=O)O"
Response: inactive

Request: Continue with "COc1ccc(NC(=O)CC(C)=O)cc1"
Response: inactive

Request: Continue with "C=C(CC)C(=O)c1ccc(OCC(=O)O)c(Cl)c1Cl"
Response: inactive

Request: Continue with "NC(=S)NC(N)=S"
Response: inactive

Request: Continue with "Cc1ccc(C(=O)O)cc1"
Response: inactive

Request: Continue with "O=C(/C=C/c1ccc(O)c(O)c1)O[C@@H](C(=O)O)[C@@H](OC(=O)/C=C/c1ccc(O)c(O)c1)C(=O)O"
Response: inactive

Request: Continue with "C[C@@H](O)[C@H](N)C(=O)O"
Response: inactive

Request: Continue with "CCN(CCN)c1cccc(C)c1"
Response: inactive

Request: Continue with CC(C(=O)O)c1ccc2c(c1)[nH]c1ccc(Cl)cc12 (stereo unspecified)
Response: inactive

Request: Continue with "CC(C)=CCC1=C(O)c2ccccc2C(=O)C1=O"
Response: inactive

Request: Continue with CCCCCCCCCCCC(=O)OCC(C)OC(=O)CCCCC(=O)O (stereo unspecified)
Response: inactive

Request: Continue with "CC[C@H](C)COC(=O)/C=C/c1ccc(N=Cc2ccc(OC)cc2)cc1"
Response: inactive

Request: Continue with "NC(=O)c1cccc([N+](=O)[O-])c1"
Response: inactive

Request: Continue with "CC(=O)[C@H]1CC[C@H]2[C@@H]3CCC4=CC(=O)CC[C@]4(C)[C@H]3CC[C@]12C"
Response: active

Request: Continue with "O=C1NC(=O)[C@@H]2CC=CC[C@H]12"
Response: inactive

Request: Continue with "Cl[Si](Cl)(c1ccccc1)c1ccccc1"
Response: inactive

Request: Continue with CCCCC(CC)CN1CN(CC(CC)CCCC)CC(C)(N)C1 (stereo unspecified)
Response: inactive

Request: Continue with "CC(C)CCOC(=O)/C=C/c1ccccc1"
Response: inactive

Request: Continue with "CCO[Si](OCC)(OCC)OCC"
Response: inactive

Request: Continue with OC1CCCc2ccccc21 (stereo unspecified)
Response: inactive

Request: Continue with CCCCC(CC)COC(=O)CCCCC(=O)OCc1ccccc1 (stereo unspecified)
Response: inactive

Request: Continue with CCCCCCOC(=O)C(C)CC (stereo unspecified)
Response: inactive

Request: Continue with "CCCC1CCC(=O)CC1"
Response: inactive

Request: Continue with "CCCc1ccc(OCC(=O)N2CCN(C(=O)COc3ccc(CCC)cc3OC)CC2)c(OC)c1"
Response: inactive

Request: Continue with "CC(C)OC(=O)C(O)(CC(=O)O)CC(=O)O"
Response: inactive

Request: Continue with "C[Si](Cl)(c1ccccc1)c1ccccc1"
Response: inactive

Request: Continue with CCOC(=O)c1ccc(C2CCC(NC[C@H](O)COc3ccc(O)c(NS(C)(=O)=O)c3)CC2)cc1 (stereo partly specified)
Response: active

Request: Continue with "CC1=CCC(=C(C)C)CC1"
Response: inactive

Request: Continue with "Cc1ccc(C)cc1"
Response: inactive

Request: Continue with "COc1cccc(OC)c1C(=O)O"
Response: inactive

These measurements were taken from PubChem BioAssay (Tox21).
